This section presents binders with their documented FACS Cell Binding (Fold Above Background) values.
- target-entity: T1, human prolactin receptor (PRLR) on cells (human, UniProt P16471 25-622)
- T1 construct: T47D, T47D#11 and MCF7 carry the endogenous receptor; also called hPRLR; HEK293/hPRLR
- T1 sequence: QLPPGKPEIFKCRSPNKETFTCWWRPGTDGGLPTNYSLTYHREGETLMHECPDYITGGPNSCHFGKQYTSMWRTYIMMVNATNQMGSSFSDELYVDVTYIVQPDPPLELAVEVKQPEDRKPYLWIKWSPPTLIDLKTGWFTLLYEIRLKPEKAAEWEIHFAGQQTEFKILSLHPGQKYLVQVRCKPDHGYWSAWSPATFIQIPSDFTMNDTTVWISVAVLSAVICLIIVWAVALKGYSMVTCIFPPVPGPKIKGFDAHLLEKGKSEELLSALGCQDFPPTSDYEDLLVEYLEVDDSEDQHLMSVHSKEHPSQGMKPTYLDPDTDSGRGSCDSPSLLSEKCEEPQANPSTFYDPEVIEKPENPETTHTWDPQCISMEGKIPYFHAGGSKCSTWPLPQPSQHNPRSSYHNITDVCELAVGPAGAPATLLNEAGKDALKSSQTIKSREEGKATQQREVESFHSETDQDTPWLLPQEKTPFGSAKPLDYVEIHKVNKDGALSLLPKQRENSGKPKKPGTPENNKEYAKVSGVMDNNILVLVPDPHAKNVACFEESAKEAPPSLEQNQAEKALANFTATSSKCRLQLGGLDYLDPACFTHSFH
- experimental-details: FACS, T47D cells (native PRLR); further: test concentration or dose not given here
assay-metric: FACS Cell Binding (Fold Above Background) (fold above background)

binder	recorded-number
H1H6792P (antibody, human IgG1, V domains shown, human IgG1 Fc (H1H)) VH: EVQLVESGGGLVQPGRSLRLSCAASGFTLDDHAVHWVRQAPGKGLEWVSGISWNSVYIDYADSVKGRFTIFRDNAKNSLYLQMNSLRAEDTAFYYCARDIEGARDYWGQGTLVTVSS VL: DIQMTQSPSSLSASVGDRVTITCRASQGIRNDLGWYQQKPGKAPKRLIYAASSLQSGVPSRFSGSGYGTEFTLTISSLQPEDFAPYYCLQHNSYPLTFGGGTKVEIK	37
H1H6762P (antibody, human IgG1, V domains shown, human IgG1 Fc (H1H)) VH: QVQLVESGGGVVQPGRSLRLSCAASGFTFSHYGMVWVRQPPGKGLEWVALISFDGTTKYYADSVKGRFTISRDNSKNTLYLQMNSLRAEDTAVYFCVGAIAAAAFDLWGRGTLVTVSS VL: EIVMTQSPATLSVSPGERATLSCRASQSVSSDLAWYQQKPGQAPRLLIYSASARATGIPARFTGSGSGTDFTLTISSLQSEDFAVYYCQQYNNWPMYTFGQGTKLEIK	38
H1H6975N (antibody, human IgG1, V domains shown, also called H2M6975N) VH: EVHLVESGGGLVQPGGSLRLSCAASGFTFSSYEMNWVRQTPGKGLEWISHISSRSVIIYYADSVKGRFTISRDNAKNSLFLQMNSLRAEDTAVYFCAGITIFGIPEYWGQGTLVTVSS VL: EIVLTQSPATLSLSPGERATLSCRASQSVSSYFAWYQQKPGQAPRLLIYDASSRATGIPTRFSGSGSGTDFTLTISSLEPEDFAVYYCQQRSSWPITFGQGTRLEIK	46
H1H6976N (antibody, human IgG1, V domains shown, also called H2M6976N) VH: EVQLLESGGGFVQPGGSLRLSCAASGFTFSSYAMSWVRQAPGKGLEWVSIISSNGRYTYYADSVKGRFTISRDNSKNTLYLQMNSLRAEDTAVYYCATVTGDWFDPWGQGTLVTVSS VL: DIQLTQSPSFLSASVGDRVTITCWASQDIDISLAWYQQKPGKAPKLLIYAASTLQSGVPSKFSGSGSGTDFTLTISSLQPEDFSTYYCQQLNSYPITFGQGTRLDIK	37
H1H6958N2 (antibody, human IgG1, V domains shown, also called H2M6958N2) VH: QVQLVESGGGVVQPGRSLRLSCGASGFTFRNYGMQWVRQGPGKGLEWVTLISFDGNDKYYADSVKGRFTISRDNSKNTLFLQMNSLRTEDTAVYYCARGGDFDYWGQGTLVTVSS VL: DIQMTQSPSSLSASVGDRVTITCRASQDIRKDLGWYQQKPGKAPKRLIYAASSLHSGVPSRFSGSGSGTEFTLTISSLQPEDFATYYCLQHNSYPMYTFGQGTKLEIK	37
H1H6804P (antibody, human IgG1, V domains shown, human IgG1 Fc (H1H)) VH: QVTLKESGPVLVKPTQTLSLTCTVSGFSLSDAGMGVSWIRQPPGKALEWLAHIFSNDGKSYSTSLKSRLTISKDTSKRQVVLTMTNMDPVDTATYYCARIRTGTYSLYLDYWGQGTLVTVSS VL: DIQMTQSPSSLSASVGDRVTITCRASQSINSYLNWYQQKPGKAPKLLLYFASSLQSGVPSRFSGSGSGTDFTLTISSLQPEDFASYYCQESYSTPWTFGQGTKVEIK	34
H1H6966N (antibody, human IgG1, V domains shown, also called H2M6966N) VH: QVQLVQSGAEVQKPGASVKVSCKVSGYTLTALSIHWVRQAPGKGLEWMGNFDPGDGETIHAQKFQGRVTMTGDTSTDTAYMELSSLRSEDTAVYYCVGVTFDYWGQGTLVTVSS VL: EIVMTQSPATLSVSPGERATLSCRASQSVASNLAWYQQKPGQAPRLLLYGASTRATGIPARFSGSGSGTEFTLTISSLQSEDFALYYCQHYNNWPLTFGGGTKVEIK	31
H1H6797P (antibody, human IgG1, V domains shown, human IgG1 Fc (H1H)) VH: EVQLVESGGGLVQPGGSLRLSCIVSGFTFSGSWMSWVRQLPGKGLEWVANIKEDGSDSYYVDSVEGRFTISRDNAKSSLYLQMNSLRVDDTAVYFCARARTVPLHYWGQGTLVTVSS VL: DIQMTQSPSTLSASVGDRVTITCRASQSINIWLAWYQQKPGKAPKLLIYRASYLESGVPSSFAGGGSGTEFTLTISSLQPDDFGTYYCQHYNSYPFTFGQGTKLEIK	38
H1H6959N2 (antibody, human IgG1, V domains shown, also called H2M6959N2) VH: EVQLVESGGGLVQPGRSLRLSCAASGFTFDDYAMHWVRQAPGKGLEWVSGISWHSGIIGYADSVKGRFTISRDNAKNSLYLQMNSLRTEDAALYYCAKIGSYFYFDSWGQGTLVTVSS VL: EIVLTQSPGTLSLSPGERATLSCRASQSVSSNYLAWYQQKPGQAPRLLIYGASSRATGIPDRFSGSGSGTDFTLTISRLEPEDFAVYYCQQFGSSGYTFGQGTNLEIK	9
H1H6953N (antibody, human IgG1, V domains shown, also called H1M6953N) VH: EVQLLESGGGLVQPGGTLRLSCAASGFTFSAYAMSWVRQAPGKGLEWVSSINVRAGDTYYADSVKGRFTISRDNSKNTLFLLMNSLRAEDTAAYYCAKARYSSNWGFDFWGQGTLVTVSS VL: DIVMTQSPDSLTVSLGARTTINCQSSQTILHSSNNHNYLAWYQQKPGLPPKLLIYWSSTRESGVPDRFSGSGSGTDFTLTISSLQAEDVAIYYCQQYSNTPYTFGQGTKLEIN	40
